Below: a set of entries, each annotated with reported inhibition.
Molecular target: Sodium channel protein type 2 subunit alpha (Homo sapiens)
Sequence (Q99250 whole entry, looked up): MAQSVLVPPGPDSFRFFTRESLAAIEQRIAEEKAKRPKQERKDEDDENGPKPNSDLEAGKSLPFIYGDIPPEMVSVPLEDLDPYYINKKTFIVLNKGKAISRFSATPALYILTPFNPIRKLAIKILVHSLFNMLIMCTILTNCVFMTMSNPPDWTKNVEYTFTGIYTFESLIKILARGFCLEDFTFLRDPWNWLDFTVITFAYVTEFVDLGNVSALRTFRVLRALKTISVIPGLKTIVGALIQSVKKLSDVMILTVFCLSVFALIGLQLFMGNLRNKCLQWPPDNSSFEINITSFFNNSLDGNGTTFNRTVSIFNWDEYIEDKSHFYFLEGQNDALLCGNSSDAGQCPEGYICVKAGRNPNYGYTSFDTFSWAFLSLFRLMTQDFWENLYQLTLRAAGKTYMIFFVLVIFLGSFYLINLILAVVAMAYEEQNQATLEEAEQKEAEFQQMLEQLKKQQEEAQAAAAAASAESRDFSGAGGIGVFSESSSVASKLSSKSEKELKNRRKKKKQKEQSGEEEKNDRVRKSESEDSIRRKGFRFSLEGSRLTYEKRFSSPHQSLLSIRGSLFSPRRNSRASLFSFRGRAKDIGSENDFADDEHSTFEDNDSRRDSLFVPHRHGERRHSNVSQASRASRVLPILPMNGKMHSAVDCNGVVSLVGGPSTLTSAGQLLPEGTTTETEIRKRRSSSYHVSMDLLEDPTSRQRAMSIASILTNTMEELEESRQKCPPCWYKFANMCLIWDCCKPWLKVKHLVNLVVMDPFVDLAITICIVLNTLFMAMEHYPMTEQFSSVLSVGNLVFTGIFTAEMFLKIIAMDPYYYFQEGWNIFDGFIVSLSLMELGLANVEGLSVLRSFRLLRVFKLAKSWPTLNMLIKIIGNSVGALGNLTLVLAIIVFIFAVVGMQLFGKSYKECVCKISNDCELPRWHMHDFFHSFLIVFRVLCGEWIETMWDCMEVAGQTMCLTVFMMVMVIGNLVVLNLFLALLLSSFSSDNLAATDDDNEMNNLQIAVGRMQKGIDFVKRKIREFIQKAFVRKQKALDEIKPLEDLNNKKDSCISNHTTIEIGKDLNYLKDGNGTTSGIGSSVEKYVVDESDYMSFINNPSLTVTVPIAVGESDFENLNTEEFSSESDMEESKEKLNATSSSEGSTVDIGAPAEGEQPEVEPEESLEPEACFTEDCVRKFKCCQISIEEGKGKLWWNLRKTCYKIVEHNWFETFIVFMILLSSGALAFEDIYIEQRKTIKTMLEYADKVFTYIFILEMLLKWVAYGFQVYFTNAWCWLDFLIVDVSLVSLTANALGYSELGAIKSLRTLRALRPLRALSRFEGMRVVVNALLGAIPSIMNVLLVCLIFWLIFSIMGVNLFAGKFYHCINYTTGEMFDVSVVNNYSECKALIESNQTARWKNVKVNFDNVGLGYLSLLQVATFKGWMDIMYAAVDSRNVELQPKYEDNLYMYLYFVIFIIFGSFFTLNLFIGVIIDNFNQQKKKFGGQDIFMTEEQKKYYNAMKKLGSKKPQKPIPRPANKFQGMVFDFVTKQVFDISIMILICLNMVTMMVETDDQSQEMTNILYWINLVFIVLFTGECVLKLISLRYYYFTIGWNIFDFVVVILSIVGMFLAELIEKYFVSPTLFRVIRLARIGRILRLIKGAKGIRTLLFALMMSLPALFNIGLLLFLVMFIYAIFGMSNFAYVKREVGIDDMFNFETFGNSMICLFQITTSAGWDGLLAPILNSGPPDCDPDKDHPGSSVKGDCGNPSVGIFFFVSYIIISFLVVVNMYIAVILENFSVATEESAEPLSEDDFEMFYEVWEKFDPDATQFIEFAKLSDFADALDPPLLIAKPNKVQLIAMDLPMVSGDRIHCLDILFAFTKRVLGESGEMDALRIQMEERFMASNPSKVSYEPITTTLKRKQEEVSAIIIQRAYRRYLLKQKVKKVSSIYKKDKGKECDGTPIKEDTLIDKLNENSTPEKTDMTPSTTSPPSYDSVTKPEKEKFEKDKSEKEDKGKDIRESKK
Assay: Inhibition of human Nav1.2 channel expressed in HEK cells at 10 uM by patch-clamp electrophysiology method
Format: cell-based
Details: HEK293

1) c1ccc(-c2c[nH]c(-c3ccccc3)n2)cc1 | 7.8%
2) COc1cccc(-c2c[nH]c(-c3ccccc3)n2)c1 | 14.2%
3) FC(F)(F)c1ccc(-c2c[nH]c(-c3ccccc3)n2)cc1 | 91.6%
4) FC(F)(F)c1cccc(-c2nc(-c3ccccc3)c[nH]2)c1 | 49.2%
5) Nc1nnc(-c2cccc(Cl)c2Cl)c(N)n1 | 12.1%

Now, please, on to the next molecule.
Summary for this molecule, FC(F)(F)c1cccc(-c2c[nH]c(-c3ccc(Cl)cc3)n2)c1 : inhibition is 27.5%
